test system: Math1 enhancer and minimal promoter Luciferase reporter in HEK cells; experiment: Math1 Luciferase reporter assay in HEK cells; type: cell-based, human; settings: Homo sapiens, HEK293; read-out: Maximum (Fold DMSO)
value-kind: maximal fold induction

• Nc1nn(-c2ncnc3c2[nH]c2ccccc23)cc1-c1ccc(Cl)cc1 = 2
• COc1ccc(Br)c(-c2nc(-c3cccs3)no2)c1 = 2.2
• c1ccc(SCc2nc3ccccc3[nH]2)cc1 = 2.2
• Cc1cccc(-c2ccc3ccccc3n2)c1 = 1.7
• COc1ccccc1OCc1nc2ccccc2[nH]1 = 1.7
• COc1ccccc1N1CCN(c2ccc3ccccc3n2)CC1 = 2.1
• Cn1cc(Cl)c(C(=O)NCC(=O)c2ccccc2)n1 = 2.1
• COc1ccc(-c2csc(-c3c(C)noc3N)n2)cc1 = 2
• CCN(CC)C(=O)c1cc2cc3cc(OC)ccc3nc2s1 = 2.2
• Clc1ccc2nc(-c3ccccc3)n(OCc3ccccc3Cl)c2c1 = 2

The measurements presented in this section are drawn from patent US11160808B2.
